Just for reference, ChEMBL document CHEMBL2086288 is where these values come from.

- Tested on: PC-3
- assay_explanation: Growth inhibition of human PC3 cells at 50 uM after 48 hrs by MTT assay
- Assay type: functional
- conditions_used: PC-3, 48 h, read-out: GI
inhibition of growth at 50 µM listing for selected compounds.
Write the value in % as a bare number.

These recorded examples may help you get a feel for the data.
* Brc1ccc(C2=NC(c3ccccc3)c3c(ccc4ccccc34)O2)cc1 (stereo not given) | 11
* Clc1ccc(C2=NC(c3ccccc3)c3c(ccc4ccccc34)O2)cc1 (stereo not given) | 19
* Fc1ccc(C2=NC(c3ccc(F)cc3)c3c(ccc4ccccc34)O2)cc1 (stereo not given) | 29
* c1ccc(C2=NC(c3ccccc3)c3c(ccc4ccccc34)O2)cc1 (stereo not given) | 16
* Cc1ccc(C2N=C(c3ccc(Br)cc3)Oc3ccc4ccccc4c32)cc1 (stereo not given) | 2

Lab note: measured inhibition of growth at 50 µM of Cc1ccc(C2=NC(c3ccccc3)c3c(ccc4ccccc34)O2)cc1 (stereo not given) was 20

Lab note: measured inhibition of growth at 50 µM of Cc1ccc(C2N=C(c3ccc([N+](=O)[O-])cc3)Oc3ccc4ccccc4c32)cc1 (stereo not given) was 12

Lab note: measured inhibition of growth at 50 µM of Cc1ccc(C2N=C(c3ccc(Cl)cc3)Oc3ccc4ccccc4c32)cc1 (stereo not given) was 13

Lab note: measured inhibition of growth at 50 µM of Cc1ccc(C2N=C(c3ccc(F)cc3)Oc3ccc4ccccc4c32)cc1 (stereo not given) was 19

Lab note: measured inhibition of growth at 50 µM of Clc1ccc(C2=NC(c3ccc(Cl)cc3)c3c(ccc4ccccc34)O2)cc1 (stereo not given) was 2

----------
- Test system: Staphylococcus aureus
- assay_explanation: Antibacterial activity against Staphylococcus aureus MTCC 2901 after 24 hrs by tube dilution method
- Format: functional
observable: -logMIC
Lab note: jot down the number only; don't add units.

These recorded examples may help you get a feel for the data.
- Cc1ccc(C2=NC(c3ccccc3)c3c(ccc4ccccc34)O2)cc1 (stereo not given): 1.75
- Cc1ccc(C2N=C(c3ccccc3)Oc3ccc4ccccc4c32)cc1 (stereo not given): 1.45
- Cc1ccc(C2N=C(c3ccc(Br)cc3)Oc3ccc4ccccc4c32)cc1 (stereo not given): 1.83
- O=[N+]([O-])c1ccc(C2=NC(c3ccccc3)c3c(ccc4ccccc34)O2)cc1 (stereo not given): 1.78

The compound Clc1ccc(C2=NC(c3ccccc3)c3c(ccc4ccccc34)O2)cc1 (stereo not given) on Staphylococcus aureus: -logMIC was 1.77

----------
- System: Staphylococcus aureus
- assay_explanation: Antibacterial activity against Staphylococcus aureus MTCC 2901 after 24 hrs by tube dilution method
- Format: functional
observable: -logMIC
Lab note: jot down the number only; don't add units.

Lab note: measured -logMIC of COc1ccc(C2=NC(c3ccc(C)cc3)c3c(ccc4ccccc34)O2)cc1 (stereo not drawn) was 1.78

Lab note: measured -logMIC of Fc1ccc(C2=NC(c3ccc(F)cc3)c3c(ccc4ccccc34)O2)cc1 (stereo not drawn) was 2.07

Lab note: measured -logMIC of Brc1ccc(C2=NC(c3ccccc3)c3c(ccc4ccccc34)O2)cc1 (stereo not drawn) was 1.52

----------
- Tested on: HCT-116
- assay_explanation: Growth inhibition of human HCT116 cells at 10 uM after 48 hrs by MTT assay
- Assay type: functional
- conditions_used: HCT-116, 48 h, read-out: GI
observable: inhibition of growth at 10 µM (%)
Write the value in % as a bare number.

These recorded examples may help you get a feel for the data.
• Fc1ccc(C2=NC(c3ccc(F)cc3)c3c(ccc4ccccc34)O2)cc1 (configuration not stated) = 5
• Cc1ccc(C2N=C(c3ccc([N+](=O)[O-])cc3)Oc3ccc4ccccc4c32)cc1 (configuration not stated) = 7
• Clc1ccc(C2=NC(c3ccccc3)c3c(ccc4ccccc34)O2)cc1 (configuration not stated) = 3
• Brc1ccc(C2=NC(c3ccccc3)c3c(ccc4ccccc34)O2)cc1 (configuration not stated) = 6
• Cc1ccc(C2N=C(c3ccccc3)Oc3ccc4ccccc4c32)cc1 (configuration not stated) = 2

Kindly consider the entry below.
Lab note: measured inhibition of growth at 10 µM of Fc1ccc(C2=NC(c3ccccc3)c3c(ccc4ccccc34)O2)cc1 (configuration not stated) was 12
